B1: Hairpin Ribozyme (parent)
chain: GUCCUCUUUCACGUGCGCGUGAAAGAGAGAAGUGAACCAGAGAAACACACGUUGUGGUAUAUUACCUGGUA

Variants of: B1
Protocol Description: self-cleavage, relative activity (ratio to wild type); higher = more cleavage; co-transcriptional
Given measured self-cleavage, output 1 if it is greater than or equal to 0.3 and -1 if not.

1) GUCCUCUUUCACGUGCGCGUGAAAGAGCGAAGUGAACCAGAGAAACACACGUUGGGGUAUAUUACCUGGUA [A28C U55G] | -1
2) GUCCUCUUUCACGUGCGCGUGAAAGAGCGAAGUGAACCAGAGAAACACACGUUGUGGUAUAUUACCGGGUA [A28C U67G] | -1
3) GUCCUCUUUCACGUGCCCGUGAAAGAGAGAAGUGAACCGGAGAAACACACGUUGUGGUAUAUUACCUGGUA [G17C A39G] | -1
4) GUCAUCUUUCACGUGCGCGUGAAAGAGAGAAGUGAACCAGAGAAACACACGUUGUGGUAUAUUACCUGAUA [C4A G69A] | -1
5) GUCCUCUUGCACGUGCGCGUGAAAGAGAGGAGUGAACCAGAGAAACACACGUUGUGGUAUAUUACCUGGUA [U9G A30G] | -1
6) GUCCUCUUUCUCGUGCGCGUGAAAGAGAGAAGUGAACCAGAGAAACACAGGUUGUGGUAUAUUACCUGGUA [A11U C50G] | -1
7) GUCCUCUUUCACGUACGCGUGAAAGAGAGAAGUGAACCAGAGAAACACACGUUGUGGUAUAUGACCUGGUA [G15A U63G] | -1
8) GUCCUCUUUCACGUGCGCGUGAAACAGAGAAGUGAACCAGAGAAAAACACGUUGUGGUAUAUUACCUGGUA [G25C C46A] | -1
9) GUCCUCUUUCACGCGCGCGUGAAAGAGAGAAGUGAAGCAGAGAAACACACGUUGUGGUAUAUUACCUGGUA [U14C C37G] | 1
10) GUCCGCUGUCACGUGCGCGUGAAAGAGAGAAGUGAACCAGAGAAACACACGUUGUGGUAUAUUACCUGGUA [U5G U8G] | -1
11) AUCCUCUUUCACGUGCGCGUGAAAGAGAGAAGUGAACGAGAGAAACACACGUUGUGGUAUAUUACCUGGUA [G1A C38G] | -1
12) GUCCUCUUUCACGUGCGCGUGAAAGAGAGAAGUGAACCAGAGAAACACACGUUGUGGUACCUUACCUGGUA [U60C A61C] | -1
13) GCCCUCUUUCACGUGCGGGUGAAAGAGAGAAGUGAACCAGAGAAACACACGUUGUGGUAUAUUACCUGGUA [U2C C18G] | -1
14) GUCCUCUUUCACGUGCGCGUGAAAGCGAGAAGUGGACCAGAGAAACACACGUUGUGGUAUAUUACCUGGUA [A26C A35G] | 1
15) GUCCUCUUUCACGUGCGCGUGAAAGAGAGAAGUUAACCAGAGAAACACACGUUGUGGUACAUUACCUGGUA [G34U U60C] | 1
16) GUCCUCUUUGACGUGCGCGUGAAAGAGAGAAGUGAACCAGAGAAACACACGUUGUGGUAUAUAACCUGGUA [C10G U63A] | -1
17) GUCCUCUUUCACGUGCGCGUGAAAGAGAGAACUGAACCAGAGAAACACACGUUGUGGUAUAUUCCCUGGUA [G32C A64C] | -1
18) GUCCUCUUUCACGUGCGCGUGAAAGAGAGAAGUGAACCAGAGAAACACACAUUGUGGUAGAUUACCUGGUA [G51A U60G] | 1
19) GUCCUCUUUCACGUGCGCGUGAAAUAGAGAAGUGAACCAGAGAAACACACGUUGUGGAAUAUUACCUGGUA [G25U U58A] | 1
20) GGCCUCUUUCACGUGCGCGUGAAAGAGAGAAGUGAACCAGAGAAAAACACGUUGUGGUAUAUUACCUGGUA [U2G C46A] | -1
21) GUCCUCUUUCACGUGCGCGUGAAAGAUAGAAGUGAACCAGAGAAAAACACGUUGUGGUAUAUUACCUGGUA [G27U C46A] | -1
22) GUCCUCUUUCACGUGCGCGUGAAAGAGAGAAGUGAAGCAGAGAAACACACGUUGUGGCAUAUUACCUGGUA [C37G U58C] | 1
23) GUCCUCUUUCACGUGCUCGUGAAAGAGAGAAGUGAACCAGAGAAACACACCUUGUGGUAUAUUACCUGGUA [G17U G51C] | 1
24) GUCCUCUUUCACGUGCGCGUGAAUGAGAGAAGUGAACCAGAGAAACACACGUUGUAGUAUAUUACCUGGUA [A24U G56A] | -1
25) GUCCUCUUUCACGUGCGCGCGAAAGAGAGAAGUGAACCAGAGAAACACACGUUGUGGUAUAUUACCUGGUC [U20C A71C] | 1
26) GUCCUCUUUCACGGGCGCGUGAAAGAGAGAAGUGAACCAGAGAAACACACGUUAUGGUAUAUUACCUGGUA [U14G G54A] | 1
27) GUCCUCUUUCACGUGAGCGUGAAAGAGAAAAGUGAACCAGAGAAACACACGUUGUGGUAUAUUACCUGGUA [C16A G29A] | -1
28) GUCCUCUUUCACGUGCGCGUGAAAGAGAGAAGUGAACCAGAAAAACACACGUUGUGGUAUAUUACUUGGUA [G42A C66U] | -1
29) GUCCUCUUUCACGUGCGCGUGAAAGAGAGAAGUGAACCAGGGAAACACACGUUAUGGUAUAUUACCUGGUA [A41G G54A] | 1
30) GUCCUCUUUCACGUGCGCGUGAAAGUGAGAAGUGAACCAGAGAAACACACGUUGUUGUAUAUUACCUGGUA [A26U G56U] | -1
31) UUCCUCUUUCACGUGCGCGUGAAAGAGAGAAGUGAACCAGAGAACCACACGUUGUGGUAUAUUACCUGGUA [G1U A45C] | -1
32) GUCCUCUUUCACGUGCGCGUGAAAGUGAGAAGUGAACCAGAGAAACACACGCUGUGGUAUAUUACCUGGUA [A26U U52C] | 1
33) GUCGUCUUUCACGUGCGCGUGAAAGAGAGAAGUGAACCAGAGCAACACACGUUGUGGUAUAUUACCUGGUA [C4G A43C] | -1
34) GUCCUCUUUCACGUGCGCGUGAAAGAGAGAAGUGAACAAGAGAAACACACGUUGAGGUAUAUUACCUGGUA [C38A U55A] | -1
35) GUCCUCUUUCACGUGCGCGUGAAAGCGAGAAGUGAACCAGAGAAACACACGUUGUGGUAUAUUACCUGGAA [A26C U70A] | 1
36) GUCCUCUUUCACGUGCGCGUGAAAGAGAGAAGUUCACCAGAGAAACACACGUUGUGGUAUAUUACCUGGUA [G34U A35C] | 1
37) GUCCUCUUUCACGUGCGCGUGAAAGAGAGAAGUGAACCAGAGAAAGACCCGUUGUGGUAUAUUACCUGGUA [C46G A49C] | -1
38) GUCCUCUUUCACGUGCGCGUGAAAGAGAUAAGUGAACCAGAGAAAAACACGUUGUGGUAUAUUACCUGGUA [G29U C46A] | -1
39) GUCCUCUUUCACGUGCGCGUGAAAGAGAGAAGUGAACCAGAGAAACACACGUUGUGUUAUAUUACCUGGUC [G57U A71C] | 1
40) GUCCUCUUUCACGUGCGCGUGAAAGAGAGAAGUGAACCAGAGAAACACCCGUUGUGGUACAUUACCUGGUA [A49C U60C] | -1
41) GUCCUCUUUCACGUGCGCGUUAAAGAGAGAAGUGAACCAGAGAAACACACGUUGUGGUAUAUCACCUGGUA [G21U U63C] | -1
42) GUCCUCUUUCACGUGCGCGUGAAAGAGAGAAGAGCACCAGAGAAACACACGUUGUGGUAUAUUACCUGGUA [U33A A35C] | -1
43) GUCCUCUUUCACGUGCGUGUGAAAGAGAGAAGUGAACCAGAGAAACACGCGUUGUGGUAUAUUACCUGGUA [C18U A49G] | 1
